Recorded Kd, one value per entry.
- Tested On: T1, GFP-9S library array, motif 4 ND N98W;D124Q (synthetic construct, N98W;D124Q)
- T1 chain: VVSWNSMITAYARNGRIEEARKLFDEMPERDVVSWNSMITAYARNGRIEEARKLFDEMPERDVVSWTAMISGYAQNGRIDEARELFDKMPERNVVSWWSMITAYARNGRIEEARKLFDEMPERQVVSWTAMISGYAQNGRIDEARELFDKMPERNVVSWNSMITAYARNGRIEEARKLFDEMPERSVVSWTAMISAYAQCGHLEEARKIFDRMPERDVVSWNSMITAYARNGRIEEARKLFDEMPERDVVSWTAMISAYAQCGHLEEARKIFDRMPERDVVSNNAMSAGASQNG
- Protocol Description: high-throughput RNA pulldown from lysate on Ni-NTA beads; HRP: 50 mM Tris pH 8, 150 mM NaCl, 1 mM beta-mercaptoethanol, 50 ug/ml BSA, 3 ug/ml yeast RNA, 0.5% heparin; ITC and FP: Tris pH 8, 200 mM KCl, 5% glycerol; MST: 50 mM Tris pH 8, 200 mM NaCl, 1 mM DTT, BSA, heparin, 0.05% Tween 20
- Assay Setup: tags: N-terminal His-eGFP; label: 5' Cy5
# number only, unit nM dropped from output

{"columns": ["Binder", "Attribute Measured", "Experimental Value"],
 "data": [
  ["AUUACACGUGA (ssRNA) [Cy5-rpoA]", "Kd", 101]
]}

Now examine the next entry.
Memo: AUUAGACGUGA (ssRNA) [Cy5-rpoA-G] , reported Kd: 94.4

The measurements presented in this section are drawn from paper PMC8809517.
